# Tested on: 156681-154-R-J1-PDC complex spheroid viability
# procedure_summary: Anticancer human tumor 156681-154-R-J1-PDC patient-derived melanoma cell line growth inhibition [CLK]
# condition_label: second compound 3.16 µM; first compound 0.1 µM; stronger effect = lower value
experimental_endpoint: viability, T/C (%)
Please state the figure in %; there is no need to write the unit.

Return reported viability, T/C. Input molecule: C=CC(=O)N1CCN(c2nc(=O)n(-c3c(C)ccnc3C(C)C)c3nc(-c4c(O)cccc4F)c(F)cc23)C(C)C1 (stereo not given) + CNC(=O)c1ccc(Nc2nc(OC3CCCC3)c3c(-c4ccc5nc(C)oc5c4)c[nH]c3n2)c(OC)c1
40.4

Tell me measured viability, T/C for COc1ccc([C@@H](O)c2cc(-c3ncnc4cc(N5CCOCC5)ccc34)c(F)cc2Cl)nn1 + CNC(=O)c1ccc(Nc2nc(OC3CCCC3)c3c(-c4ccc5nc(C)oc5c4)c[nH]c3n2)c(OC)c1 please.
47.6

Identify the reported viability, T/C for the following entry. Nc1ccn(C2OC(CO)C(O)C2(F)F)c(=O)n1 (stereo not given) + CNC(=O)c1ccc(Nc2nc(OC3CCCC3)c3c(-c4ccc5nc(C)oc5c4)c[nH]c3n2)c(OC)c1
12.3

Please give the documented viability, T/C of COC1C=CCC(C)C(C)S(=O)(=O)NC(=O)c2ccc3c(c2)N(CC2CCC21)CC1(CCCc2cc(Cl)ccc21)CO3 (stereo not given) + CNC(=O)c1ccc(Nc2nc(OC3CCCC3)c3c(-c4ccc5nc(C)oc5c4)c[nH]c3n2)c(OC)c1
39

Consider the molecule CC1(C)CCC(CN2CCN(c3ccc(C(=O)NS(=O)(=O)c4ccc(NCC5CCOCC5)c([N+](=O)[O-])c4)c(Oc4cnc5[nH]ccc5c4)c3)CC2)=C(c2ccc(Cl)cc2)C1 + CNC(=O)c1ccc(Nc2nc(OC3CCCC3)c3c(-c4ccc5nc(C)oc5c4)c[nH]c3n2)c(OC)c1 . State its measured viability, T/C.
37.8

###

# Tested on: 156681-154-R-J1-PDC complex spheroid viability
# procedure_summary: Anticancer human tumor 156681-154-R-J1-PDC cell line growth inhibition [CLK]; active = viability on the fitted dose curve at most 10% of control; inactive = the rest;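 note: spheroids exposed to the agents for seven days; 100% = DMSO vehicle control viability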
# condition_label: second compound 3.16 µM; first compound 0.03 µM
Answer with one of the outcomes 1 for active, -1 for inactive

Solved cases (5 shown):
compound | study_system | assigned_label
C=CC(=O)Nc1cc(Nc2nccc(-c3cn(C)c4ccccc34)n2)c(OC)cc1N(C)CCN(C)C + CNC(=O)c1ccc(Nc2nc(OC3CCCC3)c3c(-c4ccc5nc(C)oc5c4)c[nH]c3n2)c(OC)c1 | 156681-154-R-J1-PDC complex spheroid viability | -1
C=CC(=O)Nc1cc(Nc2nccc(-c3cn(C)c4ccccc34)n2)c(OC)cc1N(C)CCN(C)C + CN1CCN(c2cc(C(=O)Nc3cc4cc(-c5cnn(C)c5)ccc4cn3)ccn2)CC1 | 156681-154-R-J1-PDC complex spheroid viability | 1
NC(=O)C(=Cn1cnc(-c2cc(C(F)(F)F)cc(C(F)(F)F)c2)n1)c1cncnc1 + CNC(=O)c1ccc(Nc2nc(OC3CCCC3)c3c(-c4ccc5nc(C)oc5c4)c[nH]c3n2)c(OC)c1 | 156681-154-R-J1-PDC complex spheroid viability | -1
NC(=O)C(=Cn1cnc(-c2cc(C(F)(F)F)cc(C(F)(F)F)c2)n1)c1cncnc1 + CN1CCN(c2cc(C(=O)Nc3cc4cc(-c5cnn(C)c5)ccc4cn3)ccn2)CC1 | 156681-154-R-J1-PDC complex spheroid viability | 1
CC(C)CC(NC(=O)C(Cc1ccccc1)NC(=O)c1cnccn1)B(O)O (stereo unspecified) + CNC(=O)c1ccc(Nc2nc(OC3CCCC3)c3c(-c4ccc5nc(C)oc5c4)c[nH]c3n2)c(OC)c1 | 156681-154-R-J1-PDC complex spheroid viability | 1

Okay, next one:
Returns: the outcome recorded for CC(C)CC(NC(=O)C(Cc1ccccc1)NC(=O)c1cnccn1)B(O)O (stereo unspecified) + CN1CCN(c2cc(C(=O)Nc3cc4cc(-c5cnn(C)c5)ccc4cn3)ccn2)CC1 in this assay.
1

###

# Test system: 156681-154-R-J1-PDC complex spheroid viability
# procedure_summary: Anticancer human tumor 156681-154-R-J1-PDC cell line growth inhibition [CLK];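 note: spheroids exposed to the agents for seven days; 100% = DMSO vehicle control viability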
# condition_label: second compound 0.316 µM; first compound 3.16 µM; stronger effect = lower value
experimental_endpoint: viability, T/C (%)
Numbers only; they are read as %.

// solved cases for viability, T/C follow
compound | viability, T/C, %
O=C(c1cc(Cc2n[nH]c(=O)c3ccccc23)ccc1F)N1CCN(C(=O)C2CC2)CC1 + CN1CCN(c2cc(C(=O)Nc3cc4cc(-c5cnn(C)c5)ccc4cn3)ccn2)CC1 | 17.7
CC(CO)NC(=O)c1cc(-c2ccc(Cl)cc2)nn(-c2cnn(C)c2)c1=O (stereo not drawn) + CN1CCN(c2cc(C(=O)Nc3cc4cc(-c5cnn(C)c5)ccc4cn3)ccn2)CC1 | 29.1

Now look at this one.
Respond only with viability, T/C recorded for C=CC(=O)N1CCN(c2nc(=O)n(-c3c(C)ccnc3C(C)C)c3nc(-c4c(O)cccc4F)c(F)cc23)C(C)C1 (stereo not drawn) + CN1CCN(c2cc(C(=O)Nc3cc4cc(-c5cnn(C)c5)ccc4cn3)ccn2)CC1
29.6

###

# Tested on: 156681-154-R-J1-PDC complex spheroid viability
# procedure_summary: Anticancer human tumor 156681-154-R-J1-PDC cell line growth inhibition [CLK]; active = viability on the fitted dose curve at most 10% of control; inactive = the rest;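 note: spheroids exposed to the agents for seven days; 100% = DMSO vehicle control viability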
# condition_label: second compound 3.16 µM; first compound 0.1 µM
# Text: A high-throughput screen of multi-cell type tumor spheroids was designed to identify active combinations of […] and targeted small molecules. Complex spheroids include a stromal component modeled by human endothelial cells (HUVEC) and fibroblasts modeled by human mesenchymal stem cells (MSCs). […] Compounds. […] If the clinical Cmax for an agent had not been determined, the highest concentration tested was 10 microM. […]
Your answer must be one of the following: 1 (active), 0 (inactive)

The examples below pair each entry with its known result.
compound | assigned_label
Cn1ncnc1[C@H]1c2n[nH]c(=O)c3cc(F)cc(c23)N[C@@H]1c1ccc(F)cc1 + CNC(=O)c1ccc(Nc2nc(OC3CCCC3)c3c(-c4ccc5nc(C)oc5c4)c[nH]c3n2)c(OC)c1 | 0
Nc1ccn(C2OC(CO)C(O)C2(F)F)c(=O)n1 (stereo unspecified) + CN1CCN(c2cc(C(=O)Nc3cc4cc(-c5cnn(C)c5)ccc4cn3)ccn2)CC1 | 1
CC(=O)O[C@H]1C(=O)[C@@]2(C)[C@H]([C@H](OC(=O)c3ccccc3)[C@]3(O)C[C@H](OC(=O)[C@H](O)[C@@H](NC(=O)c4ccccc4)c4ccccc4)C(C)=C1C3(C)C)[C@]1(OC(C)=O)CO[C@@H]1C[C@@H]2O + CNC(=O)c1ccc(Nc2nc(OC3CCCC3)c3c(-c4ccc5nc(C)oc5c4)c[nH]c3n2)c(OC)c1 | 0
CC1COCCN1c1cc(C2(S(C)(=N)=O)CC2)nc(-c2ccnc3[nH]ccc23)n1 (stereo unspecified) + CNC(=O)c1ccc(Nc2nc(OC3CCCC3)c3c(-c4ccc5nc(C)oc5c4)c[nH]c3n2)c(OC)c1 | 0

How did this test come out for Nc1ccccc1NC(=O)c1ccc(CNC(=O)OCc2cccnc2)cc1 + CNC(=O)c1ccc(Nc2nc(OC3CCCC3)c3c(-c4ccc5nc(C)oc5c4)c[nH]c3n2)c(OC)c1 ?
0

Give the logged outcome of this assay for the following compound: CC(Nc1ccc2c(c1)OCCn1cc(N3C(=O)OCC3C(F)F)nc1-2)C(N)=O (stereo unspecified) + CN1CCN(c2cc(C(=O)Nc3cc4cc(-c5cnn(C)c5)ccc4cn3)ccn2)CC1
1

###

# Tested on: 156681-154-R-J1-PDC complex spheroid viability
# procedure_summary: Anticancer human tumor 156681-154-R-J1-PDC cell line growth inhibition [CLK]; active = viability on the fitted dose curve at most 10% of control; inactive = the rest;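 note: spheroids exposed to the agents for seven days; 100% = DMSO vehicle control viability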
# condition_label: second compound 0.316 µM; first compound 3.16 µM
Allowed answers: true (1) = active, false (0) = inactive

Before answering, review these 3 worked examples.
compound | study_system | assigned_label
COc1ccc([C@@H](O)c2cc(-c3ncnc4cc(N5CCOCC5)ccc34)c(F)cc2Cl)nn1 + CN1CCN(c2cc(C(=O)Nc3cc4cc(-c5cnn(C)c5)ccc4cn3)ccn2)CC1 | 156681-154-R-J1-PDC complex spheroid viability | true (1)
C=C(F)C(=O)N1CCN(c2nc(OCC3CCCN3C)nc3c2CCN(c2cccc4cccc(Cl)c24)C3)CC1CC#N (centres undefined) + CNC(=O)c1ccc(Nc2nc(OC3CCCC3)c3c(-c4ccc5nc(C)oc5c4)c[nH]c3n2)c(OC)c1 | 156681-154-R-J1-PDC complex spheroid viability | false (0)
C=C(F)C(=O)N1CCN(c2nc(OCC3CCCN3C)nc3c2CCN(c2cccc4cccc(Cl)c24)C3)CC1CC#N (centres undefined) + CN1CCN(c2cc(C(=O)Nc3cc4cc(-c5cnn(C)c5)ccc4cn3)ccn2)CC1 | 156681-154-R-J1-PDC complex spheroid viability | false (0)

Moving on to the next compound.
Per the assay record, what outcome was assigned to CC(=O)O[C@H]1C(=O)[C@@]2(C)[C@H]([C@H](OC(=O)c3ccccc3)[C@]3(O)C[C@H](OC(=O)[C@H](O)[C@@H](NC(=O)c4ccccc4)c4ccccc4)C(C)=C1C3(C)C)[C@]1(OC(C)=O)CO[C@@H]1C[C@@H]2O + CNC(=O)c1ccc(Nc2nc(OC3CCCC3)c3c(-c4ccc5nc(C)oc5c4)c[nH]c3n2)c(OC)c1 ?
false (0)

src = PubChem BioAssay AID2060627
